- System: HeLa Kyoto
- Protocol Summary: melting temperature (median over replicates), in situ; higher = more thermally stable
- Test Settings: cell cycle stage: mitosis
Observation Type: melting temperature (°C)
Respond numerically; units are °C and should not be typed.

MVPGAAGWCCLVLWLPACVAAHGFRIHDYLYFQVLSPGDIRYIFTATPAKDFGGIFHTRYEQIHLVPAEPPEACGELSNGFFIQDQIALVERGGCSFLSKTRVVQEHGGRAVIISDNAVDNDSFYVEMIQDSTQRTADIPALFLLGRDGYMIRRSLEQHGLPWAIISIPVNVTSIPTFELLQPPWTFW [PRADC1] ... 52.7

Please turn your attention to the following entry.
// MPNIKIFSGSSHQDLSQKIADRLGLELGKVVTKKFSNQETCVEIGESVRGEDVYIVQSGCGEINDNLMELLIMINACKIASASRVTAVIPCFPYARQDKKDKSRAPISAKLVANMLSVAGADHIITMDLHASQIQGFFDIPVDNLYAEPAVLKWIRENISEWRNCTIVSPDAGGAKRVTSIADRLNVDFALIHKERKKANEVDRMVLVGDVKDRVAILVDDMADTCGTICHAADKLLSAGATRVYAILTHGIFSGPAISRINNACFEAVVVTNTIPQEDKMKHCSKIQVIDISMILAEAIRRTHNGESVSYLFSHVPL [PRPS1] : melting temperature value = 57.4

---

- Tested on: HeLa Kyoto;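 also: HeLa Kyoto cells synchronized by double thymidine or nocodazole block, proteins quantified by TMT10plex mass spectrometry, three independent biological replicates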
- Protocol Summary: melting temperature (median over replicates), in situ; higher = more thermally stable
- Test Settings: cell cycle stage: mitosis
Property: melting temperature; scope: individual sequences
Dear colleague, please send the value followed by its unit.

Solved cases below.
MRPLTEEETRVMFEKIAKYIGENLQLLVDRPDGTYCFRLHNDRVYYVSEKIMKLAANISGDKLVSLGTCFGKFTKTHKFRLHVTALDYLAPYAKYKVWIKPGAEQSFLYGNHVLKSGLGRITENTSQYQGVVVYSMADIPLGFGVAAKSTQDCRKVDPMAIVVFHQADIGEYVRHEETLT [NIP7] ... 53.8 °C
MSLNPPIFLKRSEENSSKFVETKQSQTTSIASEDPLQNLCLASQEVLQKAQQSGRSKCLKCGGSRMFYCYTCYVPVENVPIEQIPLVKLPLKIDIIKHPNETDGKSTAIHAKLLAPEFVNIYTYPCIPEYEEKDHEVALIFPGPQSISIKDISFHLQKRIQNNVRGKNDDPDKPSFKRKRTEEQEFCDLNDSKCKGTTLKKIIFIDSTWNQTNKIFTDERLQGLLQVELKTRKTCFWRHQKGKPDTFLSTIEAIYYFLVDYHTDILKEKYRGQYDNLLFFYSFMYQLIKNAKCSGDKETGKLTH [DTWD1] ... 50.6 °C

We next turn to a different sequence, shown below.
For record MAAMRKALPRRLVGLASLRAVSTSSMGTLPKRVKIVEVGPRDGLQNEKNIVSTPVKIKLIDMLSEAGLSVIETTSFVSPKWVPQMGDHTEVLKGIQKFPGINYPVLTPNLKGFEAAVAAGAKEVVIFGAASELFTKKNINCSIEESFQRFDAILKAAQSANISVRGYVSCALGCPYEGKISPAKVAEVTKKFYSMGCYEISLGDTIGVGTPGIMKDMLSAVMQEVPLAALAVHCHDTYGQALANTLMALQMGVSVVDSSVAGLGGCPYAQGASGNLATEDLVYMLEGLGIHTGVNLQKLLEAGNFICQALNRKTSSKVAQATCKL [HMGCL] the listed melting temperature is 53.9 °C

Data provenance is the supplement of paper PMC5998384.
